# Test system: PC-3 cells
# Run Description: Cell viability analysis (MTT) in PC-3 cells
# Format: cell-based, human
# Experimental Parameters: Homo sapiens; inducing apoptotic death in PC-3 cells / PC-3 cell viability; read-out: IC50 PC-3
# Description: Cell Culture PC-3 (p53−/−) human androgen-nonresponsive prostate cancer cells were purchased from the American Type Tissue Collection (Manassas, Va.). […] Cell viability analysis The effect of 4-[5-(4-methylphenyl)-3-(trifluoromethyl)-1H-pyrazol-1-yl]benzenesulfonamide and its derivatives on PC-3 cell viability was assessed by using the MTT {[3-(4,5-dimethylthiazol-2-yl)-2,5-diphenyl-2H-tetrazolium bromide]} assay in six replicates. […] Absorbance at 570 nm was determined on a plate reader.
True if IC50 is below 20 µM. False if not; exact matches included in False.

• N=C(NO)c1ccc(-n2nc(C(F)(F)F)cc2-c2ccc3c(ccc4ccccc43)c2)cc1 = False
• O/N=C/c1ccc(-n2nc(C(F)(F)F)cc2-c2ccc3c(ccc4ccccc43)c2)cc1 = True
• [N-]=[N+]=NCCCc1ccc(-c2cc(C(F)(F)F)nn2-c2ccc(S(N)(=O)=O)cc2)cc1 = True
• NS(=O)(=O)c1ccc(-n2nc(C(F)(F)F)cc2-c2c3ccccc3cc3ccccc23)cc1 = True
• NS(=O)(=O)c1ccc(-n2nc(C(F)(F)F)cc2-c2ccc(-c3cccc(Cl)c3Cl)cc2)cc1 = True
• N#Cc1ccc(-n2nc(C(F)(F)F)cc2-c2ccc3c(ccc4ccccc43)c2)cc1 = False
• NS(=O)(=O)c1ccc(-n2nc(C(F)(F)F)cc2-c2c[nH]c3ccccc23)cc1 = False
• NS(=O)(=O)c1ccc(-n2nc(C(F)(F)F)cc2-c2ccc(CCCBr)cc2)cc1 = True
• NS(=O)(=O)c1ccc(-n2nc(C(F)(F)F)cc2-c2ccc(-c3cc(Cl)c(Cl)cc3Cl)cc2)cc1 = True
• Cc1ccc(-c2ccc(-c3cc(C(F)(F)F)nn3-c3ccc(S(N)(=O)=O)cc3)cc2)cc1 = True
• NS(=O)(=O)c1ccc(-n2nc(C(F)(F)F)cc2-c2ccc(CCBr)cc2)cc1 = True
• [N-]=[N+]=NCCc1ccc(-c2cc(C(F)(F)F)nn2-c2ccc(S(N)(=O)=O)cc2)cc1 = True
• NCC(=O)Nc1ccc(-n2nc(C(F)(F)F)cc2-c2ccc3c(ccc4ccccc43)c2)cc1 = True
• NC(=O)Nc1ccc(-n2nc(C(F)(F)F)cc2-c2ccc3c(ccc4ccccc43)c2)cc1 = False
• NC(Cc1ccc(-n2nc(C(F)(F)F)cc2-c2ccc3c(ccc4ccccc43)c2)cc1)=NO = True
• CC(C)(C)c1ccc(-c2cc(C(F)(F)F)nn2-c2ccc(S(N)(=O)=O)cc2)cc1 = True
• N#CCc1ccc(-n2nc(C(F)(F)F)cc2-c2ccc3c(ccc4ccccc43)c2)cc1 = False
• CCCCc1ccc(-c2cc(C(F)(F)F)nn2-c2ccc(S(N)(=O)=O)cc2)cc1 = True
• CC(C)(C)c1ccc(-c2ccc(-c3cc(C(F)(F)F)nn3-c3ccc(S(N)(=O)=O)cc3)cc2)cc1 = True
• NC(=O)c1ccc(-n2nc(C(F)(F)F)cc2-c2ccc3c(ccc4ccccc43)c2)cc1 = True
• Cc1ccc(-c2cc(C(F)(F)F)nn2-c2ccc(S(N)(=O)=O)cc2)cc1 [Comparative Compound, reference compound] = False
• NS(=O)(=O)c1ccc(-n2nc(C(F)(F)F)cc2-c2cc3ccccc3c3ccccc23)cc1 = False
• NN=Cc1ccc(-n2nc(C(F)(F)F)cc2-c2ccc3c(ccc4ccccc43)c2)cc1 = True
• NS(=O)(=O)c1ccc(-n2nc(C(F)(F)F)cc2-c2ccc(-c3ccc(Cl)cc3)cc2)cc1 = True
• NS(=O)(=O)c1ccc(-n2nc(C(F)(F)F)cc2-c2ccc(-c3ccccc3)cc2)cc1 = True
• NS(=O)(=O)c1ccc(-n2nc(C(F)(F)F)cc2-c2ccc(-c3ccc(CBr)cc3)cc2)cc1 = True
• NS(=O)(=O)c1ccc(-n2nc(C(F)(F)F)cc2-c2ccc(Cc3ccccc3)cc2)cc1 = True
• CCCCc1ccc(-c2ccc(-c3cc(C(F)(F)F)nn3-c3ccc(S(N)(=O)=O)cc3)cc2)cc1 = True
• NS(=O)(=O)c1ccc(-n2nc(C(F)(F)F)cc2-c2ccc(-c3cc(Cl)cc(Cl)c3)cc2)cc1 = True
